System: Huh7
Experimental details: SRB cytotoxicity assay, Huh7
Type: cell-based
Test settings: Homo sapiens, Huh-7, 72 h, read-out: IC50 (μM) ± S.D. Huh7
Measured IC50, listed per entry.
Returns: string containing the numeric result and its unit.

Look over these answered cases.
1. COc1ccc(OC)c(NC(=O)c2cc(-c3c[nH]c4ccccc34)n[nH]2)c1 [Compound 18]    0.6 µM
2. O=C(NC1CCN(Cc2ccccc2)CC1)c1cc(-c2c[nH]c3ccccc23)n[nH]1 [Compound 27]    6.8 µM
3. O=C(c1cc(-c2c[nH]c3ccccc23)n[nH]1)N1CCN(Cc2ccc(C(F)(F)F)cc2)CC1 [Compound 29]    1.7 µM
4. COc1cc(NC(=O)c2cc(-c3c[nH]c4ccccc34)n[nH]2)cc(OC)c1OC [Compound 10]    1 µM
5. CNC(=O)c1cc(Oc2ccc(NC(=O)Nc3ccc(Cl)c(C(F)(F)F)c3)cc2)ccn1 [Sorafenib, sorafenib, reference compound]    6.5 µM

Ask: Give the measured IC50 for O=C(Nc1ccccc1)c1cc(-c2c[nH]c3ccccc23)n[nH]1 [Compound 14]
Reply: 16.8 µM

Ask: Give the reported IC50 for this compound. CSc1ccc(NC(=O)c2cc(-c3c[nH]c4ccccc34)n[nH]2)cc1 [Compound 12]
Reply: 6.3 µM

Ask: Kindly indicate its recorded IC50. Item: COc1ccc(NC(=O)c2cc(-c3c[nH]c4ccccc34)n[nH]2)cc1OC [Compound 17]
Reply: 2.8 µM

Values were extracted from paper PMC10208593.
